- TARGET_OF_ASSAY: Casein Kinase 1 (yeast) (Schizosaccharomyces pombe)
- Construct: purchased Upstate 14-112
- Sequence (P40233 1-298 limits assumed): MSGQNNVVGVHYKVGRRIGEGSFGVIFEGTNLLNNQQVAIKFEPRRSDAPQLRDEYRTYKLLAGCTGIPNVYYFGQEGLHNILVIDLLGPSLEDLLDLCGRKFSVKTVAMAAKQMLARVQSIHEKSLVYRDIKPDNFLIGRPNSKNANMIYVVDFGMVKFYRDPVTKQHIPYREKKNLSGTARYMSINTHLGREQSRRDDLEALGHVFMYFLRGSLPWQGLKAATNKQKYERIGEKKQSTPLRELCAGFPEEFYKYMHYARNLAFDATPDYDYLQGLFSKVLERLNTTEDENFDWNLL
- ASSAY_NAME: CK1-Yeast kinase assay (A37 assay)
- Type: biochemical, S. pombe
- CONDITION_SUMMARY: CK1 IC50 (A37), kinase panel, 10 μM ATP
pIC50: −log10 of the molar value.
VALUE_KIND: pIC50

{"SAMPLE_SMILES": "CC(C)N1CCN(C(=O)COc2ccc(-c3n[nH]c4c3C(=O)c3c(NC(=O)NN5CCOCC5)cccc3-4)cc2)CC1", "TARGET_OF_ASSAY": "Casein Kinase 1 (yeast) (Schizosaccharomyces pombe)", "RESULT_VALUE": "> 8.52"}

----------
- TARGET_OF_ASSAY: Fyn (Homo sapiens)
- Construct: purchased Upstate 14-441
- Sequence (P06241 whole entry): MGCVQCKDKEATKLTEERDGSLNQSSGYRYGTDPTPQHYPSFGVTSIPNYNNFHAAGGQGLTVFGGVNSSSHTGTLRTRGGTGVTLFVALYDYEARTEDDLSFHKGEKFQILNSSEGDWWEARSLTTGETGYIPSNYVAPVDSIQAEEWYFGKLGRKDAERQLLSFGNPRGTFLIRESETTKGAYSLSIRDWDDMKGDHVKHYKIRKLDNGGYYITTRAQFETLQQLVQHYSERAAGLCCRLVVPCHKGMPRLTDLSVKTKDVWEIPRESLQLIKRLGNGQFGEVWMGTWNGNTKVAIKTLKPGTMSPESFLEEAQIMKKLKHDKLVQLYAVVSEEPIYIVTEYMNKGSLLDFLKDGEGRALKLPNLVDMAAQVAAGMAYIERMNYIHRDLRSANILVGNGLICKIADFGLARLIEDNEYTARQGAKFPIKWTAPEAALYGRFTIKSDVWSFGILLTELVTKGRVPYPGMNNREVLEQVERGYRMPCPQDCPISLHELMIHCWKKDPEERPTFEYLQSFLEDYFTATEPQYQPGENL
- ASSAY_NAME: Fyn kinase assay
- Format: biochemical
- CONDITION_SUMMARY: read-out: FYN Inhibition (IC50)
Structures can show the parent of a compound that is named as a salt.
# Lookup of reported IC50 keyed by entry

{"COMPOUND": "COCCN1CCN(Cc2ccc(-c3n[nH]c4c3C(=O)c3c(NC(=O)NN5CCOCC5)cccc3-4)cc2)CC1 [Compound B16, dihydrochloride]", "IC50": "< 0.05 µM"}
{"COMPOUND": "CC(C)N1CCN(C(=O)COc2ccc(-c3n[nH]c4c3C(=O)c3c(NC(=O)NN5CCOCC5)cccc3-4)cc2)CC1", "IC50": "< 0.1 µM"}

----------
- ASSAY_NAME: Maximum tolerated dose in mice
- CONDITION_SUMMARY: mouse, in vivo, intravenous; CD-1 mice; read-out: MTD, 5/2/5 dose
- Protocol: Determination of maximum tolerated dose (MTD). Mice at 8 weeks of age were pair-matched into groups of 5-8 animals and preliminary toxicity studies were performed with unknown test compounds. Animals were treated i.v. daily for 10 consecutive days with test compound and were weighed twice weekly. Mice were examined frequently for clinical signs of any adverse drug-related effects. […]
Counter-ions that a name gives are not always drawn.
VALUE_KIND: MTD (mg/kg)

{"COMPOUND": "COCCN1CCN(Cc2ccc(-c3n[nH]c4c3C(=O)c3c(NC(=O)NN5CCOCC5)cccc3-4)cc2)CC1 [Compound B16, dihydrochloride]", "RESULT_VALUE": 40}

----------
- ASSAY_NAME: Aqueous solubility
- Format: physicochemical
- CONDITION_SUMMARY: water (aqueous solution)

{"SAMPLE_SMILES": "CC(C)N1CCN(C(=O)COc2ccc(-c3n[nH]c4c3C(=O)c3c(NC(=O)NN5CCOCC5)cccc3-4)cc2)CC1", "solubility": "15 to 20 mg/mL"}

----------
- System: 1A9
- ASSAY_NAME: SRB cytotoxicity, 1A9 parental cells
- Type: cell-based
- CONDITION_SUMMARY: Homo sapiens, 72 h
pIC50: −log10 of the molar value. Where a name gives a salt, the structure may show the parent alone.
In this section, each of the molecules is paired with its reported pIC50.

{"MOLECULE": "CC(=O)O[C@H]1C(=O)[C@@]2(C)[C@H]([C@H](OC(=O)c3ccccc3)[C@]3(O)C[C@H](OC(=O)[C@H](O)[C@@H](NC(=O)c4ccccc4)c4ccccc4)C(C)=C1C3(C)C)[C@]1(OC(C)=O)CO[C@@H]1C[C@@H]2O [Paclitaxel, reference compound]", "TARGET_OF_ASSAY": "1A9", "pIC50": 8.40}
{"MOLECULE": "CC(C)N1CCN(C(=O)COc2ccc(-c3n[nH]c4c3C(=O)c3c(NC(=O)NN5CCOCC5)cccc3-4)cc2)CC1", "TARGET_OF_ASSAY": "1A9", "pIC50": 7.88}
{"MOLECULE": "CC(=O)O[C@@]12CO[C@@H]1C[C@H](O)[C@@]1(C)C(=O)[C@H](O)C3=C(C)[C@@H](OC(=O)[C@H](O)[C@@H](NC(=O)OC(C)(C)C)c4ccccc4)C[C@@](O)([C@@H](OC(=O)c4ccccc4)[C@H]21)C3(C)C [Taxotere, reference compound]", "TARGET_OF_ASSAY": "1A9", "pIC50": 8.76}
{"MOLECULE": "COCCN1CCN(Cc2ccc(-c3n[nH]c4c3C(=O)c3c(NC(=O)NN5CCOCC5)cccc3-4)cc2)CC1 [Compound B16, dihydrochloride]", "TARGET_OF_ASSAY": "1A9", "pIC50": 7.97}
